# assay-details: RP-TLC lipophilicity, silica gel C18, methanol-water
# Format: physicochemical
# condition: RP-TLC silica gel C18, mean value of RM
measured-property: mRM

compound: CCn1cc(C(=O)O)c(=O)c2cc(F)c(N3CC[N+]4(CC3)CN3C(=N4)C(C(=O)O)=Cc4ccccc43)nc21.[Cl-]
mRM: 0.99
//
compound: O=C(O)C1=Cc2ccccc2N2C[N+]3(CCN(c4cc5c(cc4F)c(=O)c(C(=O)O)cn5C4CC4)CC3)N=C12.[Cl-]
mRM: 0.89

Could you now consider this next compound?
Task item: Request the reported mRM associated with CC1CN(c2c(F)c(N)c3c(=O)c(C(=O)O)cn(C4CC4)c3c2F)CC(C)[N+]12CN1C(=N2)C(C(=O)O)=Cc2ccccc21.[Cl-] (stereo not drawn)
Reply: 1.02

----------
Each entry below lists one item and its recorded C 0 value.
# assay-details: RP-TLC lipophilicity, silica gel C18, methanol-water
# Type: physicochemical
# condition: RP-TLC silica gel C18, C0 = −RM^0/b
Reply: number alone, nothing else.

These recorded examples may help you get a feel for the data.
molecule: CCn1cc(C(=O)O)c(=O)c2cc(F)c(N3CCNCC3)cc21 [Compound 18, reference compound]
C 0: 1.24
--
molecule: COc1c(N2CCNC(C)C2)c(F)cc2c(=O)c(C(=O)O)cn(C3CC3)c12 (stereo not drawn) [Compound 21, reference compound]
C 0: 1.06

Moving on to another molecule below.
Task item: Record request: C 0 value, item COc1c(N2CC[N+]3(CN4C(C)=CC(C)=C(C(=O)O)C4=N3)C(C)C2)c(F)cc2c(=O)c(C(=O)O)cn(C3CC3)c12.[Cl-] (stereo not drawn)
Reply: 0.88

----------
# assay-details: RP-TLC lipophilicity, silica gel C8, methanol-water
# Format: physicochemical
# condition: RP-TLC silica gel C8, mean value of RM
Cut-off 1 on mRM, inclusive. At or above means Y; below means N.

Study these solved cases before continuing.
compound: CCn1cc(C(=O)O)c(=O)c2cc(F)c(N3CCNC(C)C3)c(F)c21 (stereo not shown) [Compound 17, reference compound]
label: Y
//
compound: COc1c(N2CC[N+]3(CN4C(C)=CC(C)=C(C(=O)O)C4=N3)C(C)C2)c(F)cc2c(=O)c(C(=O)O)cn(C3CC3)c12.[Cl-] (stereo not shown) [Compound 13]
label: N
//
compound: CC1CN(c2c(F)c(N)c3c(=O)c(C(=O)O)cn(C4CC4)c3c2F)CC(C)[N+]12CN1C(=N2)C(C(=O)O)=Cc2ccccc21.[Cl-] (stereo not shown) [Compound 3]
label: Y
//
compound: CC1=CC(C)=C(C(=O)O)C2=N[N+]3(CCN(c4cc5c(cc4F)c(=O)c(C(=O)O)cn5C4CC4)CC3)CN12.[Cl-] [Compound 4]
label: N
//
compound: O=C(O)C1=Cc2ccccc2N2C[N+]3(CCN(c4cc5c(cc4F)c(=O)c(C(=O)O)cn5C4CC4)CC3)N=C12.[Cl-] [Compound 8]
label: N

Next item in the queue.
Task item: Entry O=C(O)c1cn(C2CC2)c2cc(N3CCNCC3)c(F)cc2c1=O [Compound 22, ciprofloxacin, reference compound] : is its mRM no less than 1?
Reply: Y
